Origin of measurements: PubChem BioAssay AID504454

# system: Beta-2 adrenergic receptor (Homo sapiens)
# assay_protocol: agonist-induced loss of surface beta2AR – cell-based, FAP fluorogen, flow cytometry, primary screen (AID 504454)
# experimental_parameters: Am2.2-beta2AR cells, FAP receptor internalization, concentration not given here
The whole screen tested about 340,000 compounds, of which about 1,400 (0.41%) were called active.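 How the source made its calls: active means response above a set limit, near 3 SD of response in nonfluorescent compounds (cut at about 42% in these data); inactive means the rest.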 The entries come from a sample that favours actives as a whole.
Response enum: T (active), F (inactive)

Worked cases, answers included:
>  <compound>
O=C(O)c1ccc(Cn2cnc3c(=S)nc[nH]c32)cc1

>  <label_value>
F

$$$$
>  <compound>
O=[N+]([O-])/C=C/c1ccc2c(ccn2Cc2ccccc2)c1

>  <label_value>
T

$$$$
>  <compound>
N#CC1(NC(=O)COc2ccc3oc4ccccc4c3c2)CCCCC1

>  <label_value>
F

$$$$

With those in mind, consider the next compound.
Please share the test call associated with COc1ccc(N2C(=O)CC(Sc3n[nH]c(-c4ccc(C)cc4)n3)C2=O)cc1 (stereo not given) .
F

---

# system: Beta-2 adrenergic receptor (Homo sapiens)
# assay_protocol: agonist-induced loss of surface beta2AR – cell-based, FAP fluorogen, flow cytometry, primary screen (AID 504454)
# experimental_parameters: Am2.2-beta2AR cells, FAP receptor internalization, hits give high values, concentration not given here
Among all 340,000 compounds or so, about 1,400 (0.41%) were called active. Many of the other results were omitted from the sample, so actives are more common in it than they were.
value_type: response (%)
The figure you give is taken to be in %; do not add the unit.

Solved cases (6 shown):
>  <compound>
CSCCNC(=O)c1ccc2nc(Cc3ccccc3F)oc2c1

>  <system>
Beta-2 adrenergic receptor (Homo sapiens)

>  <response, %>
1.28

$$$$
>  <compound>
O=C(NCCCn1ccnc1)C1CCCN(S(=O)(=O)c2cc(Cl)ccc2Cl)C1 (stereo unspecified)

>  <system>
Beta-2 adrenergic receptor (Homo sapiens)

>  <response, %>
105

$$$$
>  <compound>
CC(C)CCNC(=O)c1ccc2c(Cl)c3c(nc2c1)CCC3

>  <system>
Beta-2 adrenergic receptor (Homo sapiens)

>  <response, %>
-1.39

$$$$
>  <compound>
CCCCN(C(=O)c1ccc(OC(F)(F)F)cc1)c1c(N)n(CCC)c(=O)[nH]c1=O

>  <system>
Beta-2 adrenergic receptor (Homo sapiens)

>  <response, %>
7.36

$$$$
>  <compound>
CCOC(=O)c1cnc2c(c(C)nn2CC)c1Cl

>  <system>
Beta-2 adrenergic receptor (Homo sapiens)

>  <response, %>
0.74

$$$$
>  <compound>
CCC(CC)NC(=O)/C=C/c1cccc([N+](=O)[O-])c1

>  <system>
Beta-2 adrenergic receptor (Homo sapiens)

>  <response, %>
-1.38

$$$$

response lookup needed for CC(=O)c1ccc(NC(=O)c2ccc3c(Cl)c4c(nc3c2)CCCC4)cc1 , thanks.
60.5

response lookup needed for CCCN(CCc1ccccc1)C1CCc2c(O)cccc2C1 (stereo unspecified) , thanks.
56.8

response lookup needed for COc1cc2c(cc1OC)C(/C=C/c1ccco1)=NCC2 , thanks.
-9.05

response lookup needed for COc1ccc(OC)c(/C=N/NC(=O)CSc2nnc(C)n2-c2ccccc2)c1 , thanks.
8.61

response lookup needed for CSc1ccc(S(=O)(=O)NCC(=O)OCC(=O)NC2(C#N)CCCCC2)cc1[N+](=O)[O-] , thanks.
5.12

response lookup needed for COC(=O)C1(C)NC(c2ccc(F)cc2)C2C(=O)N(c3ccccc3)C(=O)C21 (stereo unspecified) , thanks.
1.51

response lookup needed for COCCN1C(=O)c2oc3c(C)cc(C)cc3c(=O)c2C1c1cccc(O)c1 (stereo unspecified) , thanks.
51.7

response lookup needed for O=S(=O)(Nc1ccc2cn[nH]c2c1)c1ccccc1 , thanks.
4.15

response lookup needed for CCOC(=O)c1cnc(SCC(=O)Nc2ccccc2C(=O)OC)nc1N , thanks.
2.55

response lookup needed for Cc1ccc(-c2nnc(SCC(=O)N/N=C/c3cccs3)n2-c2ccc(C)cc2)cc1 , thanks.
-11.9
